# TESTED ON: furin, P09958;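 further: purified furin at 1:10 enzyme:substrate in 50 mM HEPES pH 7.5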
# Sequence (P09958 whole entry): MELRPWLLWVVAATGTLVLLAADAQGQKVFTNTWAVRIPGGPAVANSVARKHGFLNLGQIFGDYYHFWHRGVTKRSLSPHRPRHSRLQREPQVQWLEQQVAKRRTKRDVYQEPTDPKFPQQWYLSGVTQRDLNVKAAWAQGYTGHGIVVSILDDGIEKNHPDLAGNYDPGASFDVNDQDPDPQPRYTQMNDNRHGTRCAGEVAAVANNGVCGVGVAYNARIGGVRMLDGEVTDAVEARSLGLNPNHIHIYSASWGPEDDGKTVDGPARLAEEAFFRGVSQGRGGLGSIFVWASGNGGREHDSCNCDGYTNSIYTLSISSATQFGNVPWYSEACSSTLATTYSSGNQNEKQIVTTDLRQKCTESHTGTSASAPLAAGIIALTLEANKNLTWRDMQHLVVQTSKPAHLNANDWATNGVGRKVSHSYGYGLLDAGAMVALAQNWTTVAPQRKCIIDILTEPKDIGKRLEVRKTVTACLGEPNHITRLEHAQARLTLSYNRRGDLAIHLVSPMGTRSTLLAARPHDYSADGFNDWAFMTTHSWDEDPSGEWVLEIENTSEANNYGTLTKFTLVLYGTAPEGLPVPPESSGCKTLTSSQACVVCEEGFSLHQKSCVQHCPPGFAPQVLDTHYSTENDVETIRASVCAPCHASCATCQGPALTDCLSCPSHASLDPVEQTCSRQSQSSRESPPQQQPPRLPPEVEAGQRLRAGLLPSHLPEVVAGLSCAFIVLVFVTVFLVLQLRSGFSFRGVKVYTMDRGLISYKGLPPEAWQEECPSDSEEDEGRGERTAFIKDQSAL
# PROTOCOL TEXT: furin cleavage Z-score vs untreated control; higher = more cleavage, active = 3.5 or more, inactive = 1 or less, 8 variable residues between constant flanks
# MEASUREMENT CONTEXT: 7.5 min
The list shows a part of the results. The true hit rate is not given.
QUANTITY NAME: furin cleavage Z-score

Sample records with furin cleavage Z-score:
SEQ TEXT | furin cleavage Z-score
CAGLRRQKRDAGNASASA [FS-1000] | 12.6 (active)
CARRPRRVEAAGNASASA [FS-1921] | 1.67
CARRPRQKEAAGNASASA [FS-2782] | 0.0199 (inactive)

Each sequence below has a reported value. Please supply its furin cleavage Z-score.
1. CARTPRSSSAAGNASASA [FS-2833]
2. CANPARVCRDAGNASASA [FS-278]
3. CAGLRDLAVAAGNASASA [HC642]
4. CARQKREWIKAGNASASA [FS-2752]

1: 0.99 (inactive); 2: 6.13 (active); 3: 1.12; 4: 4.32 (active)

Values from the supplement of paper PMC3545927
